Recorded EC50 values for a group of binders are listed next.
# system_under_test: T1, recombinant murine midkine (muMK) (murine, UniProt P12025 23-140)
# T1 construct: also called murine MK; Murine MK
# T1 sequence (looked up): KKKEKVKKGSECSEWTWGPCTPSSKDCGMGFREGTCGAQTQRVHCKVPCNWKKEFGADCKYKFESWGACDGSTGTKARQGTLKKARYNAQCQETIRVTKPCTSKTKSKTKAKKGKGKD
# protocol_description: ELISA, plate coated with muMK
Please respond with the number in nM and leave the unit unwritten.

Below, 2 binders whose answers are already recorded.
IP14-H1L1 (antibody, V domains shown, also called Hv1 Lv1) VH: QVQLVQSGAEVKKPGHSVKVSCKASGQSFSSYWMNWVRQAPGQGLEWIGMIHPSDSETILNQKFKDKATLTVDISTSTAYMELSSPRSEDTAVYYCSSWSAKRGDFWGQGTLVTVSS VL: EIVLTQSPATLSLSPGERANLSCRASESISNNLHWYQQKPHQAPRLLIKYASQSISGIPARFSGSGPGTDFNLTISSVEPEDFAVYYCQQSNSWPLTFGGGTKLEIKR
0.044
IP14-H2L8 (antibody, V domains shown, also called hIP14-H2L8; Hv2 Lv8) VH: QVQLVQSGAEVKKPGASVKVSCKASGQSFSSYWMNWVRQAPGQGLEWIGMIHPSDSETILNQKFKDKATLTVDISTSTAYMELSSLRSEDTAVYYCSSWSAKRGDFWGQGTLVTVSS VL: DIVLTQSPATLSLSPGERATLSCRASESISNNLHWYQQKPHQAPRLLIYYASQSISGVPARFSGSGSGTDFTLTISSVEPEDFAVYYCQQSNSWPLTFGQGTKVEIKR
0.069

Entry under review: IP14-H5L8 (antibody, V domains shown, also called hIP14-H5L8; Hv5 Lv8) VH: QVQLVQSGGGLVQPGGSLRLSCAASGQSFSSYWMNWVRQAPGQGLEWIGMIHPSDSETILNQKFKDKATLTVDISKNTAYLQMNSLRAEDTAVYYCSSWSAKRGDFWGQGTLVTVSS VL: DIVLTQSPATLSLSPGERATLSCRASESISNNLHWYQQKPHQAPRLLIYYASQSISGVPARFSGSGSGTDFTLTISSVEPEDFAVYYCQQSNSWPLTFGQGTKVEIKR . Reported EC50?
0.05
